biological target: Transient receptor potential cation channel subfamily M member 5 (Homo sapiens, UniProt Q9NZQ8); assay: Agonist activity at human TRPM5 in HEK293T cells by FLIPR based assay; assay type: cell-based
Sequence (Q9NZQ8 whole entry): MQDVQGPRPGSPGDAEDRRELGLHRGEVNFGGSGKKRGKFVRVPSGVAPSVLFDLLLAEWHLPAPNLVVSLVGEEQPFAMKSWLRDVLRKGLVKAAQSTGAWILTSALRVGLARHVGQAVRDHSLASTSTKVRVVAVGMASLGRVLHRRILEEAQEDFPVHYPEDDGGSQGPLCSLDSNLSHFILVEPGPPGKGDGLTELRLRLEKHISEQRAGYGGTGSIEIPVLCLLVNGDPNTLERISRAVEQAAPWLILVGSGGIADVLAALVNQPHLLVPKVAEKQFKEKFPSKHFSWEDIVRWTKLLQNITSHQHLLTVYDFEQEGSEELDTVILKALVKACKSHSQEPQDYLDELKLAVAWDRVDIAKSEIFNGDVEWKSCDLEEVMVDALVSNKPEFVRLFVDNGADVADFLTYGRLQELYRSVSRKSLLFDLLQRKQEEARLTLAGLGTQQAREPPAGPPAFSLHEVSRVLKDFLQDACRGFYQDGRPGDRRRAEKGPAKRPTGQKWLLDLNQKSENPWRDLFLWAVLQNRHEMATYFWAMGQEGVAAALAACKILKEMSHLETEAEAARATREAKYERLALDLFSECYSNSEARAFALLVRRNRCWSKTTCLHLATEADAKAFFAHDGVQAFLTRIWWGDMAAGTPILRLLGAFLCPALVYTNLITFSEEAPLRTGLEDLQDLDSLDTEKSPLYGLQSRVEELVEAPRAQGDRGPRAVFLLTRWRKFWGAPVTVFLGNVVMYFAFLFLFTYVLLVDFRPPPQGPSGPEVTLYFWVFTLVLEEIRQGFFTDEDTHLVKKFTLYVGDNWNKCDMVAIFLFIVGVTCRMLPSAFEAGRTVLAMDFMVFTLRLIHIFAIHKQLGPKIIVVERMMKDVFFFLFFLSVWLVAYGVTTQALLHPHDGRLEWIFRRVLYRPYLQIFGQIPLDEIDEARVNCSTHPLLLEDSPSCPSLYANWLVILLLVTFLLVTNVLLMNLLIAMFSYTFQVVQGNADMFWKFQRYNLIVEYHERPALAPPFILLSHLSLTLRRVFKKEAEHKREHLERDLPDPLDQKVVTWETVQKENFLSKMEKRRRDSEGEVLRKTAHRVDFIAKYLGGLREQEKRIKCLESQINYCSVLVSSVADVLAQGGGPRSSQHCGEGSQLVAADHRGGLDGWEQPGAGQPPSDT
property-name: EC50
A bare number is not enough; add the unit after it.

Noted for "C=CC(C)(C)c1cc2cc3c(cc2oc1=O)O[C@H](C(C)(C)OC(C)=O)C3" : its EC50 reads 27 µM

====

test: Solubility of the compound in JP2 solution; assay type: physicochemical
property-name: solubility (µM)
# number only, unit µM dropped from output

# molecule "C=CCNC(=S)/N=c1/sc2ccccc2n1C" ; its solubility = 0.9

====

molecular target: Transient receptor potential cation channel subfamily M member 5 (Homo sapiens, UniProt Q9NZQ8); assay: Agonist activity at TRPM5 (unknown origin)
property-name: EC50

So, "C=CCNC(=S)/N=c1/sc2ccccc2n1C" ? Its EC50 was 10 µM

====

test: Volume of distribution at steady state in C57BL/6 mouse at 1 mg/kg, iv; type: ADME, organism-based; conditions: C57BL/6, mouse, in vivo, read-out: Vdss
property-name: Vd (L/kg)
Please reply with the bare figure in L/kg and do not write the unit itself.

Entry N#Cc1ccc2c(c1)C[C@H](CO)N[C@@H]2c1cc(F)cc(Cl)c1 (racemic) — recorded Vd = 4.41

====

assay: Solubility of the compound in JP2 solution at pH 6.8 measured after 3 hrs by UHPLC analysis; format: physicochemical
property-name: solubility at 3 h

Value of measured solubility at 3 h for the entry "N#Cc1ccc2c(c1)C[C@H](CO)N[C@@H]2c1cc(F)cc(Cl)c1" : 43 µg/mL

====

experiment: Solubility of the compound in JP1 solution at pH 1.2; type: physicochemical
property-name: solubility (mg/mL)
Numbers only here, please. The scale is mg/mL.

The measured solubility associated with N#Cc1ccc2c(c1)C[C@H](CO)N[C@@H]2c1cc(F)cc(Cl)c1 (racemic) reads 25.3

====

assay: Half-life in C57BL/6 mouse at 30 mg/kg, po; assay type: ADME, organism-based; conditions: C57BL/6, mouse, in vivo
property-name: half-life (min)
Report only the number, with the unit min understood.

The reported half-life of the compound "N#Cc1ccc2c(c1)C[C@H](CO)N[C@@H]2c1cc(F)cc(Cl)c1" was 324

====

test system: MDR1 (multidrug resistance mutation-1 as written); experiment: Apparent permeability across basolateral to apical side in LLC-PK1 cells overexpressing multidrug resistance mutation-1; format: ADME, cell-based, Sus scrofa; settings: pig
property-name: Papp B→A (×10⁻⁶ cm/s)
Quick note: give the figure in ×10⁻⁶ cm/s, leave out the unit.

Measured Papp B→A, "N#Cc1ccc2c(c1)C[C@H](CO)N[C@@H]2c1cc(F)cc(Cl)c1" : 13.7

====

test: Solubility of the compound in JP1 solution at pH 1.2 measured after 3 hrs by UHPLC analysis; type: physicochemical
property-name: solubility at 3 h (µg/mL)
Numeric answer only, unit µg/mL assumed.

Reported solubility at 3 h ( "N#Cc1ccc2c(c1)C[C@H](CO)N[C@@H]2c1cc(F)cc(Cl)c1" ) = 3500

====

experiment: Half-life in Sprague-Dawley rat; assay type: ADME; settings: in vivo
property-name: half-life (min)
Answer with a number only, understood to be in min.

Data point: "C=CCNC(=S)/N=c1/sc2ccccc2n1C" ; half-life = 2.6

====

assay: Unbound fraction in human plasma; assay type: ADME, cell-free
property-name: fraction unbound
Number, no unit, nothing else.

Form: compound = N#Cc1ccc2c(c1)C[C@H](CO)N[C@@H]2c1cc(F)cc(Cl)c1 (racemic) ; fraction unbound = 0.121

====

test: Half-life in C57BL/6 mouse at 1 mg/kg, iv; type: ADME, organism-based; details: C57BL/6, mouse, in vivo
property-name: half-life (h)
Respond numerically; units are h and should not be typed.

N#Cc1ccc2c(c1)C[C@H](CO)N[C@@H]2c1cc(F)cc(Cl)c1 (racemic) yielded half-life of 1.1

====

test: Metabolic stability in human liver microsomes assessed as half life; format: ADME, Microsome; details: liver microsomes
Catalogue of half-life readings, one per entry.
Enter your answer as a number in min; do not include the unit.

Quick note, half-life for N#Cc1ccc2c(c1)C[C@H](CO)N[C@@H]2c1cc(F)cc(Cl)c1 (racemic) landed at 92

Value of measured half-life for the entry "C=CCNC(=S)/N=c1/sc2ccccc2n1C" : 4.1

====

biological target: Transient receptor potential cation channel subfamily M member 8 (Homo sapiens, UniProt Q7Z2W7); experiment: Agonist activity at human TRPM8 expressed in HEK cells assessed as increase in intracellular calcium level measured for 5 mins by FLIPR assay
Sequence (Q7Z2W7 whole entry): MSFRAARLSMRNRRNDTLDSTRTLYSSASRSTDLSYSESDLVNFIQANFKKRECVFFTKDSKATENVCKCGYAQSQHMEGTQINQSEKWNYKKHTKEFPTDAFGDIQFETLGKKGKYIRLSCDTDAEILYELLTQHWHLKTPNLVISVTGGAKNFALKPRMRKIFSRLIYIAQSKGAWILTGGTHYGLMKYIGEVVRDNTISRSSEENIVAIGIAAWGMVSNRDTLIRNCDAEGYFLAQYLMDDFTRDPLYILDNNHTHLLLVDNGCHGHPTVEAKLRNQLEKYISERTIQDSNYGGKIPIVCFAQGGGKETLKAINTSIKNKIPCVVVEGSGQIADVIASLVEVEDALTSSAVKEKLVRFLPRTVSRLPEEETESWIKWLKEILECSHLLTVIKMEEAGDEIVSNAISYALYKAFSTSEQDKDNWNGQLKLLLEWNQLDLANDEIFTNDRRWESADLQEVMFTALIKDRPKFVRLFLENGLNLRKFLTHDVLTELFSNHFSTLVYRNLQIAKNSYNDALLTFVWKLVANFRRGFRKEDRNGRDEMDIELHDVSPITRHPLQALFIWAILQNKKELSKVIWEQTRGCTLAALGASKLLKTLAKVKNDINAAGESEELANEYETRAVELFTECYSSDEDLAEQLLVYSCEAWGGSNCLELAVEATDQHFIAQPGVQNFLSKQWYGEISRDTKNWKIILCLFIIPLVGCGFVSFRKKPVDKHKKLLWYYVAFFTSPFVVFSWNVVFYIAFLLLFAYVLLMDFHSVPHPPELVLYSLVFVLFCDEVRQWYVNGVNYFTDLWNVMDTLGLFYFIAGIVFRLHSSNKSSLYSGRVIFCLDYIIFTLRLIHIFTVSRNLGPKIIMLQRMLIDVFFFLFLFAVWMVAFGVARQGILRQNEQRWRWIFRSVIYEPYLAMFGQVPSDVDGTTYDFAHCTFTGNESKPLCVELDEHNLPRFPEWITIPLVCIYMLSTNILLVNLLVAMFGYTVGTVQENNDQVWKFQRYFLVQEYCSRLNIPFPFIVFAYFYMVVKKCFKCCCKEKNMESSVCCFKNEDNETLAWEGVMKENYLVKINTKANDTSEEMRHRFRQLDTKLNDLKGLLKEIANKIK
pEC50: −log10 of the molar value.
property-name: pEC50

The measured pEC50 associated with "N#Cc1ccc2c(c1)C[C@H](CO)N[C@@H]2c1cc(F)cc(Cl)c1" reads < 4.80

====

experiment: AUC (0 to infinity) in C57BL/6 mouse at 300 mg/kg, po; format: ADME, organism-based; parameters: time infinity, dose 300 mg/kg, route po; details: in vivo
property-name: AUC(0-inf) (ng·h/mL)
Unit ng·h/mL implied. Number only.

Lab note: N#Cc1ccc2c(c1)C[C@H](CO)N[C@@H]2c1cc(F)cc(Cl)c1 (racemic) gave AUC(0-inf) of 49400

====

assay: Metabolic stability in human liver microsomes assessed as intrinsic clearance; format: ADME, Microsome; settings: read-out: CLH
property-name: CLint scaled (mL/min/kg)
Respond numerically; units are mL/min/kg and should not be typed.

Entry "C=CCNC(=S)/N=c1/sc2ccccc2n1C" — recorded CLint scaled = 338

Attribution: ChEMBL document CHEMBL5150049
